MEASUREMENT_TARGET: panel of 442 kinases (Homo sapiens)
Construct: purchased Ambit Biosciences (scanMAXX KINOMEscan)
MEASUREMENT_NOTES: biochemical
Type: binding
TEST_SETTINGS: kinase ITK; 1 µM; read-out: % of control at 1 µM
PROPERTY_NAME: remaining activity at 1 µM

[[record]]
smiles_code = "COc1ncc(-c2ccc3nccc(-c4ccnnc4)c3c2)cc1NS(=O)(=O)c1ccc(F)cc1F"
property_name = "remaining activity at 1 µM"
measurement = "86%"

[[record]]
smiles_code = "FC(F)c1nc2ccccc2n1-c1nc(N2CCOCC2)nc(N2CCOCC2)n1"
property_name = "remaining activity at 1 µM"
measurement = "97%"

[[record]]
smiles_code = "Nc1cc(C(F)(F)F)c(-c2cc(N3CCOCC3)nc(N3CCOCC3)n2)cn1"
property_name = "remaining activity at 1 µM"
measurement = "100%"

[[record]]
smiles_code = "Cn1c(=O)n(-c2ccc(C(C)(C)C#N)cc2)c2c3cc(-c4cnc5ccccc5c4)ccc3ncc21"
property_name = "remaining activity at 1 µM"
measurement = "91%"


* * *

Each item that follows carries a reported remaining activity at 1 µM.
MEASUREMENT_TARGET: panel of 442 kinases (Homo sapiens, UniProt Q14164)
Construct: purchased Ambit Biosciences (scanMAXX KINOMEscan)
Sequence (Q14164 1-716): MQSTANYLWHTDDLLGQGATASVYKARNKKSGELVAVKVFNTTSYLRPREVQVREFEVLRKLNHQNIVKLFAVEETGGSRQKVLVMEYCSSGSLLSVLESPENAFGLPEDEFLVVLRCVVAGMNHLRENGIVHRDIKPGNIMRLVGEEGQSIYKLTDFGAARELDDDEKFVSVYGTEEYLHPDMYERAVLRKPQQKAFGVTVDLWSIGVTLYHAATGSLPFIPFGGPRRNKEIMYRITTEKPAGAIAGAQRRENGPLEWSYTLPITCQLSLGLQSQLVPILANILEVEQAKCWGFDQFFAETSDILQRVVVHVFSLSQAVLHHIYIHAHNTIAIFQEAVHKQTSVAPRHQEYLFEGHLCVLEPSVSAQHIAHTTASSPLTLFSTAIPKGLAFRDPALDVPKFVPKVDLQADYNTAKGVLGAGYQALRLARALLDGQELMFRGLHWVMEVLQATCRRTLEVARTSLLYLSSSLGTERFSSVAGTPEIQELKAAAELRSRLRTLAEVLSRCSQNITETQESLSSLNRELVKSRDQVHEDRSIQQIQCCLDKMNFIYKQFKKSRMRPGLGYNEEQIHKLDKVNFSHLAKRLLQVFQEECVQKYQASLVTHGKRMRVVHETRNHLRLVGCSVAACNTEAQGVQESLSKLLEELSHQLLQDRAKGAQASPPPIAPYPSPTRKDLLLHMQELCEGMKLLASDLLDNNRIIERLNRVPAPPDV
MEASUREMENT_NOTES: biochemical
Type: binding
TEST_SETTINGS: kinase IKK-epsilon; 1 µM; read-out: % of control at 1 µM
PROPERTY_NAME: remaining activity at 1 µM (%)

[[record]]
smiles_code = "FC(F)c1nc2ccccc2n1-c1nc(N2CCOCC2)nc(N2CCOCC2)n1"
property_name = "remaining activity at 1 µM"
measurement = 100

[[record]]
smiles_code = "Nc1cc(C(F)(F)F)c(-c2cc(N3CCOCC3)nc(N3CCOCC3)n2)cn1"
property_name = "remaining activity at 1 µM"
measurement = 78

[[record]]
smiles_code = "Cn1c(=O)n(-c2ccc(C(C)(C)C#N)cc2)c2c3cc(-c4cnc5ccccc5c4)ccc3ncc21"
property_name = "remaining activity at 1 µM"
measurement = 100

[[record]]
smiles_code = "COc1ncc(-c2ccc3nccc(-c4ccnnc4)c3c2)cc1NS(=O)(=O)c1ccc(F)cc1F"
property_name = "remaining activity at 1 µM"
measurement = 100


* * *

Each item that follows carries a reported remaining activity at 1 µM.
MEASUREMENT_TARGET: panel of 442 kinases (Homo sapiens, UniProt Q13627)
Construct: purchased Ambit Biosciences (scanMAXX KINOMEscan)
MEASUREMENT_NOTES: biochemical
Assay type: binding
TEST_SETTINGS: DYRK1A; 1 µM; read-out: % of control at 1 µM
PROPERTY_NAME: remaining activity at 1 µM

[[record]]
compound = "FC(F)c1nc2ccccc2n1-c1nc(N2CCOCC2)nc(N2CCOCC2)n1 [ZSTK474]"
measurement_target = "panel of 442 kinases (Homo sapiens, UniProt Q13627)"
measurement = "100%"

[[record]]
compound = "COc1ncc(-c2ccc3nccc(-c4ccnnc4)c3c2)cc1NS(=O)(=O)c1ccc(F)cc1F [Omipalisib]"
measurement_target = "panel of 442 kinases (Homo sapiens, UniProt Q13627)"
measurement = "100%"

[[record]]
compound = "Cn1c(=O)n(-c2ccc(C(C)(C)C#N)cc2)c2c3cc(-c4cnc5ccccc5c4)ccc3ncc21 [Dactolisib]"
measurement_target = "panel of 442 kinases (Homo sapiens, UniProt Q13627)"
measurement = "100%"

[[record]]
compound = "Nc1cc(C(F)(F)F)c(-c2cc(N3CCOCC3)nc(N3CCOCC3)n2)cn1 [Buparlisib]"
measurement_target = "panel of 442 kinases (Homo sapiens, UniProt Q13627)"
measurement = "80%"


* * *

Each item that follows carries a reported remaining activity at 1 µM.
MEASUREMENT_TARGET: panel of 442 kinases (Homo sapiens)
Construct: purchased Ambit Biosciences (scanMAXX KINOMEscan)
MEASUREMENT_NOTES: biochemical
Assay type: binding
TEST_SETTINGS: kinase PRKCD; 1 µM; read-out: PRKCD (% of control at 1 µM)
PROPERTY_NAME: remaining activity at 1 µM

[[record]]
smiles_code = "Nc1cc(C(F)(F)F)c(-c2cc(N3CCOCC3)nc(N3CCOCC3)n2)cn1"
measurement_target = "panel of 442 kinases (Homo sapiens)"
measurement = "100%"

[[record]]
smiles_code = "Cn1c(=O)n(-c2ccc(C(C)(C)C#N)cc2)c2c3cc(-c4cnc5ccccc5c4)ccc3ncc21"
measurement_target = "panel of 442 kinases (Homo sapiens)"
measurement = "86%"

[[record]]
smiles_code = "COc1ncc(-c2ccc3nccc(-c4ccnnc4)c3c2)cc1NS(=O)(=O)c1ccc(F)cc1F"
measurement_target = "panel of 442 kinases (Homo sapiens)"
measurement = "74%"

[[record]]
smiles_code = "FC(F)c1nc2ccccc2n1-c1nc(N2CCOCC2)nc(N2CCOCC2)n1"
measurement_target = "panel of 442 kinases (Homo sapiens)"
measurement = "100%"


* * *

MEASUREMENT_TARGET: panel of 442 kinases (Homo sapiens, UniProt Q92772)
Construct: purchased Ambit Biosciences (scanMAXX KINOMEscan)
Sequence (Q92772 1-493): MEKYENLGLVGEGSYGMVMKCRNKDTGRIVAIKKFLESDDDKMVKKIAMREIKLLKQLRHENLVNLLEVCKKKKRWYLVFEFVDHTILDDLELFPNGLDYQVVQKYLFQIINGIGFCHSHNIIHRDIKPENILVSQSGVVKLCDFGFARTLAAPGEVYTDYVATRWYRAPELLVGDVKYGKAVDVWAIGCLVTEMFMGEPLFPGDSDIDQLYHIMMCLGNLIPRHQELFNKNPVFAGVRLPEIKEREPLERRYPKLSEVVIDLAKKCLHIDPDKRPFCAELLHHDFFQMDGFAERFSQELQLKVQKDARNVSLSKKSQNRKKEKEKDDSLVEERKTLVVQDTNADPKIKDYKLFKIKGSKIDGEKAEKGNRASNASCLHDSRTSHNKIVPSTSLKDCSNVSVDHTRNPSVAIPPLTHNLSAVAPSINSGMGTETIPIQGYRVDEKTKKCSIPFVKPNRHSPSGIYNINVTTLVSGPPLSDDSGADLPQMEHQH
MEASUREMENT_NOTES: biochemical
Format: binding
TEST_SETTINGS: CDKL2; 1 µM; read-out: % of control at 1 µM
PROPERTY_NAME: remaining activity at 1 µM

[[record]]
smiles_code = "Cn1c(=O)n(-c2ccc(C(C)(C)C#N)cc2)c2c3cc(-c4cnc5ccccc5c4)ccc3ncc21"
measurement_target = "panel of 442 kinases (Homo sapiens, UniProt Q92772)"
measurement = "26%"

[[record]]
smiles_code = "COc1ncc(-c2ccc3nccc(-c4ccnnc4)c3c2)cc1NS(=O)(=O)c1ccc(F)cc1F"
measurement_target = "panel of 442 kinases (Homo sapiens, UniProt Q92772)"
measurement = "90%"

[[record]]
smiles_code = "FC(F)c1nc2ccccc2n1-c1nc(N2CCOCC2)nc(N2CCOCC2)n1"
measurement_target = "panel of 442 kinases (Homo sapiens, UniProt Q92772)"
measurement = "100%"

[[record]]
smiles_code = "Nc1cc(C(F)(F)F)c(-c2cc(N3CCOCC3)nc(N3CCOCC3)n2)cn1"
measurement_target = "panel of 442 kinases (Homo sapiens, UniProt Q92772)"
measurement = "66%"


* * *

MEASUREMENT_TARGET: panel of 442 kinases (Homo sapiens, UniProt Q99640)
Construct: purchased Ambit Biosciences (scanMAXX KINOMEscan)
Sequence (Q99640 whole entry): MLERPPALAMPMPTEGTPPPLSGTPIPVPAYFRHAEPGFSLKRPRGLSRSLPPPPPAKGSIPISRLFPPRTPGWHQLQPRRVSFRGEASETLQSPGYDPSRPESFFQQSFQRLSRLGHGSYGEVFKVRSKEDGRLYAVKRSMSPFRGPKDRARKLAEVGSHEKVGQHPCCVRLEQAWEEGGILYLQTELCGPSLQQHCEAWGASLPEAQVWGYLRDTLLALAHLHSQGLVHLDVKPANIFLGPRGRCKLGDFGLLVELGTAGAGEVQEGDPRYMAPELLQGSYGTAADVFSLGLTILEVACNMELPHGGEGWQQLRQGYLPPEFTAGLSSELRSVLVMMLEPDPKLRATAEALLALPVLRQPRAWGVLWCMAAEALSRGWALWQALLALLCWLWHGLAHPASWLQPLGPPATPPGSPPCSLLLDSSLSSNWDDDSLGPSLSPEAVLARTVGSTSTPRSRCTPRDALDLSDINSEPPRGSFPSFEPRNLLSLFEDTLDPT
MEASUREMENT_NOTES: biochemical
Assay type: binding
TEST_SETTINGS: kinase PKMYT1; 1 µM; read-out: PKMYT1 (% of control at 1 µM)
Each item that follows carries a reported remaining activity at 1 µM.
PROPERTY_NAME: remaining activity at 1 µM

[[record]]
compound = "Cn1c(=O)n(-c2ccc(C(C)(C)C#N)cc2)c2c3cc(-c4cnc5ccccc5c4)ccc3ncc21 [Dactolisib]"
measurement = "75%"

[[record]]
compound = "FC(F)c1nc2ccccc2n1-c1nc(N2CCOCC2)nc(N2CCOCC2)n1 [ZSTK474]"
measurement = "72%"

[[record]]
compound = "COc1ncc(-c2ccc3nccc(-c4ccnnc4)c3c2)cc1NS(=O)(=O)c1ccc(F)cc1F [Omipalisib]"
measurement = "81%"

[[record]]
compound = "Nc1cc(C(F)(F)F)c(-c2cc(N3CCOCC3)nc(N3CCOCC3)n2)cn1 [Buparlisib]"
measurement = "100%"

